Molecular target: recombinant wild-type SARS-CoV-2 S trimer (ELISA antigen) (SARS-CoV-2 wild-type, UniProt P0DTC2)
parameter measured: binding result

1. P5S-1B11 (antibody, V domains shown) VH: QVQLVQSGAEVKKPGASVKLSCRASGYTFTSYFMHWVRQAPGQGLEWMGVINPGGGGTSYAQKFQGRVTMTRDTSTSTVYMELSSLRSEDTAVYYCARYYDSIDNFDYWGQGTLVTVSS VL: DIQMTQSPSSLSASVGDRVTITCRASQGIRNDLGWYQQKPGKAPKCLIYAASSLQSGVPSRFSGSRSGTEFTLTISSLQPEDFATYYCLQHNTYPQLTFGGGTKVEIK = binds
2. P2S-2A6 (antibody, V domains shown) VH: EVQLVESGGGLVQPGRSLRLSCAASGMTFDDYDMHWVRQVPGKGLEWVSGISWNGGIIGYADSVKGRFTISRDNAKTSLYLQMNSLRAEDTALYYCAKVAGRGDYDYYYGMDVWGQGTTVTVSS VL: QSVLTQPPSVSGAPGQRVTISCTGSSSNIGAGYDVHWYQQLPGTAPKLLIYGNNNRPSGVPDRFSGSKSGTSASLAITGLQAEDEADYYCQSYDSSLSGSVFGGGTKLTVL = binds
3. P2-2H8 (antibody, V domains shown) VH: QVQLVQSGAEVKKPGSSVKVSCKASGGTFSSYAISWVRQAPGQGLEWMGRIISMLGIANYAQKFQGRVTITADKSTSTAYMELSSLRSEDTAIYFCARDPDIHYDSSGYSHYYGMDVWGQGTTVTVSS VL: DIVMTQSPLSLPVTPGEPASISCRSSQSLLHGNGYNYLDWYLQRPGQSPQLLIYLGSNRASGVPGRFSGSGSGTDFTLKISRVEAEDVGVYYCMQALQTLITFGQGTQLEIK = binds
4. P5S-3D10 (antibody, V domains shown) VH: EVQLVESGGDLVQPGRSLRLSCAASGFTFSLFAMSWVRQAPGKGLEWVSTISGRGDSSYYADSVKGRFTISRDNSKNTLYLQITGLRAEDTAVYYCAKGVDGDYGNWFDPWGQGALVTVSS VL: SYVLTQPPSVSVAPGKTARITCGGNNIGSKSVHWYQQKPGQAPVLVIYYDSDRPSGIPERISGSNSGNTATLTISRVEAGDEADYYCQVWHSSSVIFGGGTKLTVL = binds
5. P104-1G2 (antibody, V domains shown) VH: QLQLQESGPGLVKPSETLSLTCTVSGGSISSSSYYWGWIRQPPGKGLEWIGSIYYGGSTYYNPSLKSRVTISVDTSKNQFSLKLSSVTAADTAVYYCARSLGIFDYWGQGTLVTVSS VL: DIQMTQSPSSLSASVGDRVTITCRASQGISNSLAWYQQKPGKAPKLLLYGASTLESGVPSRFSGSGSATDYTLTISSLQPEDFATYYCQQYYSNPPYTFGQGTKLEIK = binds
6. P2-1G1 (antibody, V domains shown) VH: EVQLVESGGGLVQPGRSLRLSCAASGFTFDDYAMHWVRQAPGKGLEWVSGMSWNSGTIGYADSVKGRFTISRDNAKNSLYLQMNSLRPEDTALYYCAKDIGGAEMATRNYGMDVWGQGTTVTVSS VL: QSALTQPASVSGSPGQSITISCTGASSDVGGYNYVSWYQQHPGKAPKLMIYDVSERPSGVSNRFSGSKSGNTASLTISGLQAEDEADYYCSSYTSSSTLVFGGGTKLTVL = binds

Prompt: Return value of binding result for input P195-1B7 (antibody, V domains shown) VH: QITLKESGPTLVKPTQTLTLTCTFSGFSLSTSGVGVGWIRQPPGKALEWLALIYWDDDKRYSPSLKSRLTITKDTSKNQVVLTMTNMDPVDTATYYCAHSGYSGYDWRGFDYWGQGTLVTVSS VL: SYELTQPPSVSVSPGQTARITCSADALPKQYAYWYQQKPGQAPVLVIYKDSERPSGIPERFSGSSSGTTVTLTISGVQAEDEADYYCQSADSSGTYPVVFGGGTKLTVL , no commentary.
Completion: binds

Prompt: Return value of binding result for input P195-2B8 (antibody, V domains shown) VH: EVQLVESGGGLIHPGGSLRLSCAASGFTVSSNYMTWVRQAPGKGLEWVSVIYSGGSTFYADSVKGRFTISRDNSKNTLYLQMNSLRAQDTAVYYCARDLSVYGMDVWGQGTTVTVSS VL: DIQLTQSPSFLSASVGDRVTITCRASQGISSYLAWYQQKPGKAPKLLIYAASTLQSGVPSRFSGSGSGTEFTLTISSLQPEDFATYYCQQLNSDSFTFGPGTKVDIK , no commentary.
Completion: binds
